Observed IC50 for UniProt:O42275, reported per entry below.

[
  {
    "molecular string": "CCCOC(=O)[C@]12CCC(C)(C)C[C@H]1C1=CC[C@@H]3[C@@]4(C)C[C@@H](O)[C@H](O)C(C)(C)[C@@H]4CC[C@@]3(C)[C@]1(C)CC2",
    "IC50 / µM": 8.76
  },
  {
    "molecular string": "CC1(C)CC[C@]2(C(=O)OCCC#CCl)CC[C@]3(C)C(=CC[C@@H]4[C@@]5(C)C[C@@H](O)[C@H](O)C(C)(C)[C@@H]5CC[C@]43C)[C@@H]2C1",
    "IC50 / µM": 6.57
  },
  {
    "molecular string": "C#CCCOC(=O)[C@]12CCC(C)(C)C[C@H]1C1=CC[C@@H]3[C@@]4(C)C[C@@H](O)[C@H](O)C(C)(C)[C@@H]4CC[C@@]3(C)[C@]1(C)CC2",
    "IC50 / µM": 11.7
  }
]

###

Measured Ki values are reported for all entries that follow.
# tested target: Cholinesterase (Equus caballus, UniProt P81908)
# Sequence (P81908 whole entry): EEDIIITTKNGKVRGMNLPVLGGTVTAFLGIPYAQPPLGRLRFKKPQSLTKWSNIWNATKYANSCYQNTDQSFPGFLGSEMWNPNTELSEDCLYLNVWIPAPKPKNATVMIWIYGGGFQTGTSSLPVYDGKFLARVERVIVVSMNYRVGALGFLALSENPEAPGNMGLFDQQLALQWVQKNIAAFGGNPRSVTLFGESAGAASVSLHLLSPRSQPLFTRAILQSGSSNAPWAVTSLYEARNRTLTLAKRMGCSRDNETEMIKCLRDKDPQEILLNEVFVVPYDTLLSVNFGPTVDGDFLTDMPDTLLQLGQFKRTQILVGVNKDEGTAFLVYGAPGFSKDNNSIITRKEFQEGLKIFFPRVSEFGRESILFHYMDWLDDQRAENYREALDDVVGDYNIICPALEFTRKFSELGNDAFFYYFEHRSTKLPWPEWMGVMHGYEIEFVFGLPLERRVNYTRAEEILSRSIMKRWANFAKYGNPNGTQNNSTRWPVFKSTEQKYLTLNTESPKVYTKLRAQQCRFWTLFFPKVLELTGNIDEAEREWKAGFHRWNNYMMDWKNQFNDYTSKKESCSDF
# protocol details: Inhibition of equine serum BChE using butyrylthiocholine iodide as substrate preincubated for 20mins before the addition of substrate by Ellman's method
# measurement parameters: read-out: Ki
property label: Ki

[
  {
    "molecular string": "CC1(C)CC[C@]2(C(=O)OCCCBr)CC[C@]3(C)C(=CC[C@@H]4[C@@]5(C)C[C@@H](O)[C@H](O)C(C)(C)[C@@H]5CC[C@]43C)[C@@H]2C1",
    "property label": "Ki",
    "recorded result": "> 80 µM"
  },
  {
    "molecular string": "CC(=O)O[C@@H]1C[C@]2(C)[C@H]3CC=C4[C@@H]5CC(C)(C)CC[C@]5(C(N)=O)CC[C@@]4(C)[C@]3(C)CC[C@H]2C(C)(C)[C@H]1OC(C)=O",
    "property label": "Ki",
    "recorded result": "> 20 µM"
  },
  {
    "molecular string": "CC1(C)CC[C@]2(C(=O)OCCCCCl)CC[C@]3(C)C(=CC[C@@H]4[C@@]5(C)C[C@@H](O)[C@H](O)C(C)(C)[C@@H]5CC[C@]43C)[C@@H]2C1",
    "property label": "Ki",
    "recorded result": "> 10 µM"
  }
]

###

As shown below, each of these molecules has a reported Ki value.
# tested target: UniProt P81908
# protocol details: Inhibition of equine serum BChE using butyrylthiocholine iodide as substrate preincubated for 20mins before the addition of substrate by Ellman's method
# measurement parameters: read-out: Ki

[
  {
    "molecule": "C=CCCOC(=O)[C@]12CCC(C)(C)C[C@H]1C1=CC[C@@H]3[C@@]4(C)C[C@@H](O)[C@H](O)C(C)(C)[C@@H]4CC[C@@]3(C)[C@]1(C)CC2",
    "Ki": "> 10 µM"
  },
  {
    "molecule": "CC1(C)CC[C@]2(C(=O)OCC3CCCCC3)CC[C@]3(C)C(=CC[C@@H]4[C@@]5(C)C[C@@H](O)[C@H](O)C(C)(C)[C@@H]5CC[C@]43C)[C@@H]2C1",
    "Ki": "> 14 µM"
  },
  {
    "molecule": "CCNC(=O)[C@]12CCC(C)(C)C[C@H]1C1=CC[C@@H]3[C@@]4(C)C[C@@H](OC(C)=O)[C@H](OC(C)=O)C(C)(C)[C@@H]4CC[C@@]3(C)[C@]1(C)CC2",
    "Ki": "> 14 µM"
  },
  {
    "molecule": "CC1(C)CC[C@]2(C(=O)OCc3ccccc3)CC[C@]3(C)C(=CC[C@@H]4[C@@]5(C)C[C@@H](O)[C@H](O)C(C)(C)[C@@H]5CC[C@]43C)[C@@H]2C1 [BENZYL MASLINATE]",
    "Ki": "> 14 µM"
  },
  {
    "molecule": "CC1(C)CC[C@]2(C(=O)OC/C=C\\CCl)CC[C@]3(C)C(=CC[C@@H]4[C@@]5(C)C[C@@H](O)[C@H](O)C(C)(C)[C@@H]5CC[C@]43C)[C@@H]2C1",
    "Ki": "> 80 µM"
  }
]

###

# tested target: Cholinesterase (Equus caballus)
# protocol details: Inhibition of equine serum BChE using butyrylthiocholine iodide as substrate preincubated for 20mins before the addition of substrate by Ellman's method
# measurement parameters: read-out: Ki
property label: Ki

[
  {
    "molecular string": "CC1(C)CC[C@]2(C(=O)OCCCO)CC[C@]3(C)C(=CC[C@@H]4[C@@]5(C)C[C@@H](O)[C@H](O)C(C)(C)[C@@H]5CC[C@]43C)[C@@H]2C1",
    "property label": "Ki",
    "recorded result": "> 10 µM"
  },
  {
    "molecular string": "CC1(C)CC[C@]2(C(=O)OCc3ccc(Br)cc3)CC[C@]3(C)C(=CC[C@@H]4[C@@]5(C)C[C@@H](O)[C@H](O)C(C)(C)[C@@H]5CC[C@]43C)[C@@H]2C1",
    "property label": "Ki",
    "recorded result": "> 20 µM"
  },
  {
    "molecular string": "CC1(C)CC[C@]2(C(N)=O)CC[C@]3(C)C(=CC[C@@H]4[C@@]5(C)C[C@@H](O)[C@H](O)C(C)(C)[C@@H]5CC[C@]43C)[C@@H]2C1",
    "property label": "Ki",
    "recorded result": "18.1 µM"
  }
]

###

# tested target: UniProtKB P81908
# protocol details: Inhibition of equine serum BChE using butyrylthiocholine iodide as substrate preincubated for 20mins before the addition of substrate by Ellman's method
# measurement parameters: read-out: Ki

[
  {
    "compound": "CC1(C)CC[C@]2(C(=O)O)CC[C@]3(C)C(=CC[C@@H]4[C@@]5(C)C[C@H](O)[C@H](O)C(C)(C)[C@@H]5CC[C@]43C)[C@@H]2C1 [AUGUSTIC ACID]",
    "tested target": "UniProtKB P81908",
    "Ki": "35.6 µM"
  },
  {
    "compound": "COc1ccc(COC(=O)[C@]23CCC(C)(C)C[C@H]2C2=CC[C@@H]4[C@@]5(C)C[C@@H](O)[C@H](O)C(C)(C)[C@@H]5CC[C@@]4(C)[C@]2(C)CC3)cc1",
    "tested target": "UniProtKB P81908",
    "Ki": "> 100 µM"
  },
  {
    "compound": "C#CCNC(=O)[C@]12CCC(C)(C)C[C@H]1C1=CC[C@@H]3[C@@]4(C)C[C@@H](O)[C@H](O)C(C)(C)[C@@H]4CC[C@@]3(C)[C@]1(C)CC2",
    "tested target": "UniProtKB P81908",
    "Ki": "> 20 µM"
  },
  {
    "compound": "CC1(C)CC[C@]2(C(=O)OCCCCl)CC[C@]3(C)C(=CC[C@@H]4[C@@]5(C)C[C@@H](O)[C@H](O)C(C)(C)[C@@H]5CC[C@]43C)[C@@H]2C1",
    "tested target": "UniProtKB P81908",
    "Ki": "> 6 µM"
  },
  {
    "compound": "CC1(C)CC[C@]2(C(=O)OCCCCBr)CC[C@]3(C)C(=CC[C@@H]4[C@@]5(C)C[C@@H](O)[C@H](O)C(C)(C)[C@@H]5CC[C@]43C)[C@@H]2C1",
    "tested target": "UniProtKB P81908",
    "Ki": "> 10 µM"
  },
  {
    "compound": "CCCOC(=O)[C@]12CCC(C)(C)C[C@H]1C1=CC[C@@H]3[C@@]4(C)C[C@@H](O)[C@H](O)C(C)(C)[C@@H]4CC[C@@]3(C)[C@]1(C)CC2",
    "tested target": "UniProtKB P81908",
    "Ki": "> 6 µM"
  }
]

###

# tested target: Acetylcholinesterase (Electrophorus electricus)
# Sequence (O42275 whole entry): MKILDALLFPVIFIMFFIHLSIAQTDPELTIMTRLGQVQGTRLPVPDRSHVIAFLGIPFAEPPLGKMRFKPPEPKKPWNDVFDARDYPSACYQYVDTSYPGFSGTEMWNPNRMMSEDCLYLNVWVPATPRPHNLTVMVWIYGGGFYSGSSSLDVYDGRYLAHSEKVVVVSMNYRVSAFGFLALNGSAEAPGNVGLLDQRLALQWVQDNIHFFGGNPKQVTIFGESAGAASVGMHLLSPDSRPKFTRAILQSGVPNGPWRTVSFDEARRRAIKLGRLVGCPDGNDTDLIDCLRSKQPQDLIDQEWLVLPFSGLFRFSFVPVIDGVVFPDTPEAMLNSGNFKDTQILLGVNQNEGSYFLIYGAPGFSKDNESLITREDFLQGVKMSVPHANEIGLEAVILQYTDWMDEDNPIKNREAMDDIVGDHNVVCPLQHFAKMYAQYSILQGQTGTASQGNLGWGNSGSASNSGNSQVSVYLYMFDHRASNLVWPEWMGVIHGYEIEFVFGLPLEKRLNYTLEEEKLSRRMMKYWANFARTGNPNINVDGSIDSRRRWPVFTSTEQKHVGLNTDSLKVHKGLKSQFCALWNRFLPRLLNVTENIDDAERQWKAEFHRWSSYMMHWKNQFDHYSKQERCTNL
# protocol details: Mixed type inhibition of Electrophorus electricus AChE by Lineweaver-Burk plot analysis
property label: log10(Kiuc) (log10 of the value in µM)

[
  {
    "compound": "CCCCCCOC(=O)[C@]12CCC(C)(C)C[C@H]1C1=CC[C@@H]3[C@@]4(C)C[C@@H](O)[C@H](O)C(C)(C)[C@@H]4CC[C@@]3(C)[C@]1(C)CC2",
    "log10(Kiuc)": 0.71
  },
  {
    "compound": "CC1(C)CC[C@@]2(C(=O)OCc3ccc([N+](=O)[O-])cc3)CC[C@@]3(C)C(=CC[C@H]4[C@]5(C)C[C@H](O)[C@@H](O)C(C)(C)[C@H]5CC[C@@]43C)[C@H]2C1 (single isomer, unassigned)",
    "log10(Kiuc)": 0.86
  },
  {
    "compound": "CC1(C)CC[C@]2(C(=O)OCCCCl)CC[C@]3(C)C(=CC[C@@H]4[C@@]5(C)C[C@@H](O)[C@H](O)C(C)(C)[C@@H]5CC[C@]43C)[C@@H]2C1",
    "log10(Kiuc)": 0.54
  },
  {
    "compound": "CCOC(=O)[C@]12CCC(C)(C)C[C@H]1C1=CC[C@@H]3[C@@]4(C)C[C@@H](O)[C@H](O)C(C)(C)[C@@H]4CC[C@@]3(C)[C@]1(C)CC2",
    "log10(Kiuc)": 0.67
  },
  {
    "compound": "CC1(C)CC[C@]2(C(=O)O)CC[C@]3(C)C(=CC[C@@H]4[C@@]5(C)C[C@@H](OC(=O)CCl)[C@H](OC(=O)CCl)C(C)(C)[C@@H]5CC[C@]43C)[C@@H]2C1",
    "log10(Kiuc)": 1.30
  },
  {
    "compound": "CC1(C)CC[C@]2(C(=O)OC/C=C\\CCl)CC[C@]3(C)C(=CC[C@@H]4[C@@]5(C)C[C@@H](O)[C@H](O)C(C)(C)[C@@H]5CC[C@]43C)[C@@H]2C1",
    "log10(Kiuc)": 0.97
  },
  {
    "compound": "C=CCCOC(=O)[C@]12CCC(C)(C)C[C@H]1C1=CC[C@@H]3[C@@]4(C)C[C@@H](O)[C@H](O)C(C)(C)[C@@H]4CC[C@@]3(C)[C@]1(C)CC2",
    "log10(Kiuc)": 1.06
  },
  {
    "compound": "C#CCCOC(=O)[C@]12CCC(C)(C)C[C@H]1C1=CC[C@@H]3[C@@]4(C)C[C@@H](O)[C@H](O)C(C)(C)[C@@H]4CC[C@@]3(C)[C@]1(C)CC2",
    "log10(Kiuc)": 1.51
  },
  {
    "compound": "CC1(C)CC[C@]2(C(=O)OCc3ccc(Cl)cc3Cl)CC[C@]3(C)C(=CC[C@@H]4[C@@]5(C)C[C@@H](O)[C@H](O)C(C)(C)[C@@H]5CC[C@]43C)[C@@H]2C1",
    "log10(Kiuc)": 0.97
  },
  {
    "compound": "CC1(C)CC[C@]2(C(=O)OCCCI)CC[C@]3(C)C(=CC[C@@H]4[C@@]5(C)C[C@@H](O)[C@H](O)C(C)(C)[C@@H]5CC[C@]43C)[C@@H]2C1",
    "log10(Kiuc)": 1.13
  },
  {
    "compound": "CC1(C)CC[C@]2(C(=O)OCCCO)CC[C@]3(C)C(=CC[C@@H]4[C@@]5(C)C[C@@H](O)[C@H](O)C(C)(C)[C@@H]5CC[C@]43C)[C@@H]2C1",
    "log10(Kiuc)": 1.14
  },
  {
    "compound": "CC1(C)CC[C@]2(C(=O)O)CC[C@]3(C)C(=CC[C@@H]4[C@@]5(C)C[C@H](OC(=O)CCl)[C@H](OC(=O)CCl)C(C)(C)[C@@H]5CC[C@]43C)[C@@H]2C1",
    "log10(Kiuc)": 0.97
  },
  {
    "compound": "CC(=O)O[C@@H]1C[C@]2(C)[C@H]3CC=C4[C@@H]5CC(C)(C)CC[C@]5(C(=O)NCc5ccccc5)CC[C@@]4(C)[C@]3(C)CC[C@H]2C(C)(C)[C@H]1OC(C)=O",
    "log10(Kiuc)": 1.60
  },
  {
    "compound": "COc1ccc(COC(=O)[C@]23CCC(C)(C)C[C@H]2C2=CC[C@@H]4[C@@]5(C)C[C@@H](O)[C@H](O)C(C)(C)[C@@H]5CC[C@@]4(C)[C@]2(C)CC3)cc1",
    "log10(Kiuc)": 1.84
  },
  {
    "compound": "CCCOC(=O)[C@]12CCC(C)(C)C[C@H]1C1=CC[C@@H]3[C@@]4(C)C[C@@H](O)[C@H](O)C(C)(C)[C@@H]4CC[C@@]3(C)[C@]1(C)CC2",
    "log10(Kiuc)": 1.19
  },
  {
    "compound": "CC1(C)CC[C@]2(C(=O)OCCCBr)CC[C@]3(C)C(=CC[C@@H]4[C@@]5(C)C[C@@H](O)[C@H](O)C(C)(C)[C@@H]5CC[C@]43C)[C@@H]2C1",
    "log10(Kiuc)": 1.39
  },
  {
    "compound": "COC(=O)[C@]12CCC(C)(C)C[C@H]1C1=CC[C@@H]3[C@@]4(C)C[C@@H](O)[C@H](OS(N)(=O)=O)C(C)(C)[C@@H]4CC[C@@]3(C)[C@]1(C)CC2",
    "log10(Kiuc)": 1.59
  },
  {
    "compound": "CC1(C)CC[C@]2(C(=O)OCC3CCCCC3)CC[C@]3(C)C(=CC[C@@H]4[C@@]5(C)C[C@@H](O)[C@H](O)C(C)(C)[C@@H]5CC[C@]43C)[C@@H]2C1",
    "log10(Kiuc)": 0.43
  },
  {
    "compound": "CC1(C)CC[C@]2(C(=O)OCCC#CCl)CC[C@]3(C)C(=CC[C@@H]4[C@@]5(C)C[C@@H](O)[C@H](O)C(C)(C)[C@@H]5CC[C@]43C)[C@@H]2C1",
    "log10(Kiuc)": 1.17
  }
]
